Biological target: Cytochrome P450 1A2 (Homo sapiens) (UniProt P05177)
Sequence (P05177 whole entry, looked up): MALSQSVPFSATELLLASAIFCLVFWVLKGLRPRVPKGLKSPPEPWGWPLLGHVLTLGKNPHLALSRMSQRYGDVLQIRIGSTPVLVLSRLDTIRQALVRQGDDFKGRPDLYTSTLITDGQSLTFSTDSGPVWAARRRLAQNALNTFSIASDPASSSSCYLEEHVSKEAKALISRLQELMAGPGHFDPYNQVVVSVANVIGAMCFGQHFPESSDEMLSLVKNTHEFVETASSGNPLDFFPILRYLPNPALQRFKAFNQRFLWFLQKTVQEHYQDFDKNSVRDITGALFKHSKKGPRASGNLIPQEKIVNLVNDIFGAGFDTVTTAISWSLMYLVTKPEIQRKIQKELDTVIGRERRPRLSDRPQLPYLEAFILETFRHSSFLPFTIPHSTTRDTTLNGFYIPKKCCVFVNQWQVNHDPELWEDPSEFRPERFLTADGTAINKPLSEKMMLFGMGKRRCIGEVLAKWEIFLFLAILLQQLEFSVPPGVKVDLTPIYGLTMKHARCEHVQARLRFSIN
Test: p450-cyp1a2 (AID 410)
Details: recombinant CYP1A2, luciferin-ME demethylation, luminescence; series mostly up to 57 µM
Results filed as inconclusive are left out. Activity calls are given as the source filed them. The call rests on the fitted dose curve.
Entry note: the call must match one of active, inactive

Would you mind telling me which call this test gave "CS(=O)(=O)N1CCC[C@@]2(CCN(c3ccccc3)C2)C1" ?
active

Next entry: "Cc1cccc(CNc2nc(-c3ccc4c(c3)OCO4)nc3ccccc23)c1"
active

Next entry: "O=C(c1cnccn1)N1CCC[C@@]2(CCN(C(c3ccccc3)c3ccccc3)C2)C1"
active

Next entry: "O=C(c1ccco1)N1CCC2(CC1)CCN(c1cccc(-c3ccccc3)c1)CC2"
active
